- testedTarget: recombinant human NK3 receptor (Homo sapiens, UniProt P29371)
- Construct: expressed in transfected cells; host or cells: HEK293 cells (transient expression), membranes
- Sequence (P29371 whole entry): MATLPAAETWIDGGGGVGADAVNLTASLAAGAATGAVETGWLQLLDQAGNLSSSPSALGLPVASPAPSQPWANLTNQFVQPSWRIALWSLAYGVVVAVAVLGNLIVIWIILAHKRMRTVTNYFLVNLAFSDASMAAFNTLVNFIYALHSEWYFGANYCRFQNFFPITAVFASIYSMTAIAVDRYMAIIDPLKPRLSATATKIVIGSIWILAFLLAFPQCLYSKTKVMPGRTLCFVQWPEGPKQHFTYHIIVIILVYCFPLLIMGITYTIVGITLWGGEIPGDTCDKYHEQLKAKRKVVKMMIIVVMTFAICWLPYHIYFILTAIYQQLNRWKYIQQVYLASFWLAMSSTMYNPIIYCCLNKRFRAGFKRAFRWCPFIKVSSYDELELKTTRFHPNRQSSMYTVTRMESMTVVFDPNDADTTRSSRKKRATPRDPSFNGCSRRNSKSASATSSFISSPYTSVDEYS
- methodDescription: [3H]SR142801 competition binding assay
- conditionDescription: membranes from HEK293 cells transiently expressing hNK3; [3H]SR142801 at its KD; 75 min RT; read-out: Data [μM] (affinity constant Ki, hNK3 receptor binding)
- Description: [^3H]SR142801 Competition Binding Assay hNK3 receptor binding experiment were performed using [^3H]SR142801 (Catalog No. TRK1035, specific activity: 74.0 Ci/mmol, Amersham, GE Healthcare UK limited, Buckinghamshire, UK) and membrane isolated from HEK293 cells transiently expressing recombinant human NK3 receptor. […] Nonspecific binding was measured in the presence of 10 μM SB222200 for both radioligands. […]
outcomeMeasure: Ki (µM)
Provide only the numeric value, understood in µM.

Examples with answers:
{"compound": "CC(=O)N(C)[C@H]1CC[C@H](C(=O)N2C[C@H]([C@H](C)Oc3ccc(C#N)cn3)[C@@H](c3ccc(Cl)c(Cl)c3)C2)CC1 (racemic)", "quantitativeReadout": 0.004}
{"compound": "C[C@H](Oc1ccc(Cl)cn1)[C@H]1CN(C(=O)C2CCN(C(=O)C3CCC3)CC2)C[C@@H]1c1ccc(Cl)c(Cl)c1 (racemic)", "quantitativeReadout": 0.0012}
{"compound": "CC(=O)N1CCC(C(=O)N2C[C@H]([C@H](C)Oc3ccc(C#N)cn3)[C@@H](c3ccc(Cl)c(Cl)c3)C2)CC1 (racemic)", "quantitativeReadout": 0.0076}
{"compound": "C[C@H](Oc1ccc(C#N)cn1)[C@H]1CN(C(=O)C2CCN(C(=O)C3(C)CC3)CC2)C[C@@H]1c1ccc(Cl)c(Cl)c1 (racemic) [Example 47]", "quantitativeReadout": 0.0019}
{"compound": "CCC(=O)N1CCC(C(=O)N2C[C@H]([C@H](C)Oc3ccc(C#N)cn3)[C@@H](c3ccc(Cl)c(Cl)c3)C2)CC1 (racemic)", "quantitativeReadout": 0.0036}

Please turn your attention to the following entry.
Returns the measured Ki for the input compound. Input: C#C[C@H]1CC[C@H](C(=O)N2C[C@H]([C@H](C)Oc3ccc(Cl)cn3)[C@@H](c3ccc(Cl)c(Cl)c3)C2)CC1 (racemic)
0.009

###

Listing of entries alongside the reported Ki.
- testedTarget: recombinant human NK3 receptor (Homo sapiens, UniProt P29371)
- Construct: expressed in transfected cells; host or cells: HEK293 cells (transient expression), membranes
- methodDescription: [3H]SR142801 competition binding assay
- conditionDescription: membranes from HEK293 cells transiently expressing hNK3; [3H]SR142801 at its KD; 75 min RT; read-out: Data [μM] (affinity constant Ki, hNK3 receptor binding)
Provide only the numeric value, understood in µM.

Examples with answers:
{"compound": "CC(C)CN1CCC(C(=O)N2C[C@H]([C@H](C)Oc3ccc(Cl)cn3)[C@@H](c3ccc(Cl)c(Cl)c3)C2)CC1 (racemic) [Example 11]", "outcomeMeasure": "Ki", "quantitativeReadout": 0.0061}
{"compound": "COC[C@H]1CC[C@H](C(=O)N2C[C@H]([C@H](C)Oc3ccc(Cl)cn3)[C@@H](c3ccc(Cl)c(Cl)c3)C2)CC1 (racemic) [Example 6]", "outcomeMeasure": "Ki", "quantitativeReadout": 0.0058}
{"compound": "C[C@H](Oc1ccc(C#N)cn1)[C@H]1CN(C(=O)C2CCN(C(=O)C3CC3)CC2)C[C@@H]1c1ccc(Cl)c(Cl)c1 (racemic) [Example 14]", "outcomeMeasure": "Ki", "quantitativeReadout": 0.0049}

Please turn your attention to the following entry.
Can you look up Ki on recombinant human NK3 receptor (Homo sapiens, UniProt P29371) for C[C@H](Oc1ccc(C#N)cn1)[C@H]1CN(C(=O)C2CCN(C(=O)C3(N)CC3)CC2)C[C@@H]1c1ccc(Cl)c(Cl)c1 (racemic) [Example 19] ?
0.0077
